Listing of entries alongside the reported CTGlo-ATS Mean MinResponse % 72 h PANC0504.1.
tested on: Panc 05.04 cells (SF3b K700E mutant); assay: Cell proliferation and viability, CellTiter-Glo, 72 hours; format: cell-based; conditions: PANC0504.1 cells, 72 h; −100% cidal, 0% static, 100% maximal growth
assay readout: CTGlo-ATS Mean MinResponse % 72 h PANC0504.1 (%)

>>> measured_value("C/C(=C\\c1cc(F)cc(N2CCC[C@@H]2CO)c1)[C@H]1OC(=O)C[C@H](O)CC[C@H](C)[C@@H](OC(=O)N2CCN(C)CC2)/C=C/[C@@H]1C [Compound 44]")
"−92.314"
>>> measured_value("C/C(=C\\c1cc(F)cc(N2CCOCC2)c1)[C@H]1OC(=O)C[C@H](O)CC[C@H](C)[C@@H](OC(=O)N2CCN(C)CC2)/C=C/[C@@H]1C [Compound 3]")
"−87.809"
>>> measured_value("CN[C@H]1CCN(c2cc(F)cc(/C=C(\\C)[C@H]3OC(=O)C[C@H](O)CC[C@H](C)[C@@H](OC(=O)N4CCN(C)CC4)/C=C/[C@@H]3C)c2)C1 [Compound 39]")
"−89.747"
>>> measured_value("C/C(=C\\c1cc(F)cc(N2CCN(C#CF)C2=O)c1)[C@H]1OC(=O)C[C@H](O)CC[C@H](C)[C@@H](OC(=O)N2CCN(C)CC2)/C=C/[C@@H]1C [Compound 66]")
"−89.623"

---

test system: Panc 05.04 cells (SF3b K700E mutant); experiment: Cell proliferation and viability, CellTiter-Glo, 72 hours; assay type: cell-based; conditions: PANC0504.1 cells, 72 h; −100% cidal, 0% static, 100% maximal growth
Flag rule - CTGlo-ATS Mean MinResponse % 72 h PANC0504.1 less than -80% flags fulfilled; the remaining entries get not fulfilled.

>>> group("C/C(=C\\c1cc(F)cc(N2CC[C@H](N(C)C)C2)c1)[C@H]1OC(=O)C[C@H](O)CC[C@H](C)[C@@H](OC(=O)N2CCN(C)CC2)/C=C/[C@@H]1C [Compound 17]")
"not fulfilled"
>>> group("C/C(=C\\c1cc(F)cc(N2CCOCC2)c1)[C@H]1OC(=O)C[C@H](O)CC[C@H](C)[C@@H](OC(=O)N2CCN(C(C)(C)C)CC2)/C=C/[C@@H]1C [Compound 25]")
"fulfilled"
>>> group("C/C(=C\\c1cc(F)cc(N2CCN(C(=O)C3CC3)CC2)c1)[C@H]1OC(=O)C[C@H](O)CC[C@H](C)[C@@H](OC(=O)N2CCN(C)CC2)/C=C/[C@@H]1C [Compound 109]")
"fulfilled"
>>> group("CNC(=O)Cn1ncc2c(F)cc(/C=C(\\C)[C@H]3OC(=O)C[C@H](O)CC[C@H](C)[C@@H](OC(=O)N4CCN(C)CC4)/C=C/[C@@H]3C)cc21 [Compound 128]")
"fulfilled"
>>> group("C/C(=C\\c1ccc2c(C)nn(C)c2c1)[C@H]1OC(=O)C[C@H](O)CC[C@H](C)[C@@H](OC(=O)N2CCN(C)CC2)/C=C/[C@@H]1C [Compound 50]")
"fulfilled"
>>> group("C/C(=C\\c1cc(F)c2nn(CC3CC3)nc2c1)[C@H]1OC(=O)C[C@H](O)CC[C@H](C)[C@@H](OC(=O)N2CCN(C)CC2)/C=C/[C@@H]1C [Compound 138]")
"fulfilled"
>>> group("C/C(=C\\c1cc(F)cc(N2CCOCC2)c1)[C@H]1OC(=O)C[C@H](O)CC[C@@](C)(O)[C@@H](OC(=O)N2CCN(C)CC2)/C=C/[C@@H]1C [Compound 61]")
"fulfilled"
>>> group("C/C(=C\\c1cc(F)cc(N(C)C)c1)[C@H]1OC(=O)C[C@H](O)CC[C@H](C)[C@@H](OC(=O)N2CCN(C)CC2)/C=C/[C@@H]1C [Compound 29]")
"fulfilled"
>>> group("COc1ccc(S(=O)(=O)N2CCN(c3cc(F)cc(/C=C(\\C)[C@H]4OC(=O)C[C@H](O)CC[C@H](C)[C@@H](OC(=O)N5CCN(C)CC5)/C=C/[C@@H]4C)c3)CC2)cc1 [Compound 110]")
"not fulfilled"
>>> group("C/C(=C\\c1cc(F)cc(N(C)C2CCOCC2)c1)[C@H]1OC(=O)C[C@H](O)CC[C@H](C)[C@@H](OC(=O)N2CCN(C)CC2)/C=C/[C@@H]1C [Compound 168]")
"fulfilled"
>>> group("C/C(=C\\c1cc(F)c2cn(C3CCOCC3)nc2c1)[C@H]1OC(=O)C[C@H](O)CC[C@H](C)[C@@H](OC(=O)N2CCN(C)CC2)/C=C/[C@@H]1C [Compound 117]")
"fulfilled"
>>> group("C/C(=C\\c1cc(F)cc(N2CCOCC2)c1)[C@H]1OC(=O)C[C@H](O)CC[C@H](C)[C@@H](OC(=O)N2CCN(CCO)CC2)/C=C/[C@@H]1C [Compound 21]")
"fulfilled"
>>> group("C/C(=C\\c1cc(F)cc(N2CCOCC2)c1)[C@H]1OC(=O)C[C@H](O)CC[C@H](C)[C@@H](OC(=O)N2CCCC(N(C)C)C2)/C=C/[C@@H]1C (some centres unmarked) [Compound 40]")
"fulfilled"
>>> group("C/C(=C\\c1cc(F)cc(N2CCN(CC(F)(F)F)CC2)c1)[C@H]1OC(=O)C[C@H](O)CC[C@H](C)[C@@H](OC(=O)N2CCN(C)CC2)/C=C/[C@@H]1C [Compound 107]")
"fulfilled"
>>> group("C/C(=C\\c1cc(C)cc2[nH]ncc12)[C@H]1OC(=O)C[C@H](O)CC[C@H](C)[C@@H](OC(=O)N2CCN(C)CC2)/C=C/[C@@H]1C [Compound 96]")
"not fulfilled"
>>> group("C/C(=C\\c1cc(F)cc(N2CCN(CCO)CC2)c1)[C@H]1OC(=O)C[C@H](O)CC[C@H](C)[C@@H](OC(=O)N2CCOCC2)/C=C/[C@@H]1C [Compound 53]")
"fulfilled"

---

target: SF3b complexes (Homo sapiens, UniProt O75533+Q7RTV0); construct: endogenous in cells; host or cells: Nuclear extracts; A HeLa S3 extract preparation is described for the in vitro splicing assay; assay: Scintillation proximity assay (SPA) with [3H]-labelled pladienolide probe; format: binding; details: SF3B1 (WT); geometric mean; read-out: SPA-ATS GMean IC50 (nM) SF3B1 (WT)
assay readout: IC50

>>> measured_value("C/C(=C\\c1cccc(S(=O)(=O)C2CC2)c1)[C@H]1OC(=O)C[C@H](O)CC[C@H](C)[C@@H](OC(=O)N2CCN(C)CC2)/C=C/[C@@H]1C [Compound 215]")
"6.83 nM"
>>> measured_value("C/C(=C\\c1cc(F)cc(N(C(C)C)C2CCN(S(C)(=O)=O)CC2)c1)[C@H]1OC(=O)C[C@H](O)CC[C@H](C)[C@@H](OC(=O)N2CCN(C)CC2)/C=C/[C@@H]1C [Compound 176]")
"38.5 nM"
>>> measured_value("C/C(=C\\c1cc(F)cc(N2CCOCC2)c1)[C@H]1OC(=O)C[C@H](O)CC[C@H](C)[C@@H](OC(=O)N2CCN(C(C)C)CC2)/C=C/[C@@H]1C [Compound 24]")
"5.19 nM"

---

test system: Panc 05.04 cells (SF3b K700E mutant); assay: Cell proliferation and viability, CellTiter-Glo, 72 hours; type: cell-based; conditions: 72 h; PANC0504.1; -100% = cidal, 0% = static, 100% = uninhibited growth
Listing of entries alongside the reported CTGlo-ATS Mean MinResponse % 72 h PANC0504.1.
assay readout: CTGlo-ATS Mean MinResponse % 72 h PANC0504.1

>>> measured_value("C/C(=C\\c1ccc(C)c(N2CCCC2=O)c1)[C@H]1OC(=O)C[C@H](O)CC[C@H](C)[C@@H](OC(=O)N2CCN(C)CC2)/C=C/[C@@H]1C [Compound 207]")
"−92.266%"
>>> measured_value("C/C(=C\\c1cccc(S(=O)(=O)N2CCN(C)CC2)c1)[C@H]1OC(=O)C[C@H](O)CC[C@H](C)[C@@H](OC(=O)N2CCN(C)CC2)/C=C/[C@@H]1C [Compound 211]")
"−91.820%"
>>> measured_value("C/C(=C\\c1cccc(COC(=O)N2CC[C@@H](F)C2)c1)[C@H]1OC(=O)C[C@H](O)CC[C@H](C)[C@@H](OC(=O)N2CCN(C)CC2)/C=C/[C@@H]1C (single isomer, unassigned) [Compound 256]")
"−88.839%"
>>> measured_value("C/C(=C\\c1cccc(S(=O)(=O)N2CCCC2)c1)[C@H]1OC(=O)C[C@H](O)CC[C@H](C)[C@@H](OC(=O)N2CCN(C)CC2)/C=C/[C@@H]1C [Compound 214]")
"−91.986%"
